Molecular target: human pIgR, full-length, on cells (human, UniProt P01833 19-764)
Sequence (P01833 19-764): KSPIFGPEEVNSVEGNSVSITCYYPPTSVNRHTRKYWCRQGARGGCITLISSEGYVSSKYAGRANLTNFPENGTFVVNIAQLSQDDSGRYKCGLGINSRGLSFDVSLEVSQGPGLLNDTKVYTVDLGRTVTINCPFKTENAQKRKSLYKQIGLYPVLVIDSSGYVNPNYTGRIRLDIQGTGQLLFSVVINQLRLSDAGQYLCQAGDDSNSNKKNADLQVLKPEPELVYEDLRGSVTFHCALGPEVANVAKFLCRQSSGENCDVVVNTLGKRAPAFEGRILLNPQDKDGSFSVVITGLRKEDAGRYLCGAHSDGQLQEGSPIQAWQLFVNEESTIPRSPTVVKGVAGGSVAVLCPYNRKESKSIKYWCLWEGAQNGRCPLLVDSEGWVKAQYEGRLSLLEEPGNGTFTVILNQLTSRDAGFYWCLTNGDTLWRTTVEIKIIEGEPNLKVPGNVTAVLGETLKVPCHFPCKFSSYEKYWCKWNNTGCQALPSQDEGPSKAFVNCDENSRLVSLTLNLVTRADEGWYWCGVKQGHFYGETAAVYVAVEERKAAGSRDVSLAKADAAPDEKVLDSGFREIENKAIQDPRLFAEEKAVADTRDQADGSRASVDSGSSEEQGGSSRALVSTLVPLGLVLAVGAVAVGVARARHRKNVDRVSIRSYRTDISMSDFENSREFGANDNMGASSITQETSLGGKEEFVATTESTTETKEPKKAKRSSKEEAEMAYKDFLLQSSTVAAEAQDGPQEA
Assay: cell-based or functional assay
value.type: increase in their apical concentration relative to control VHH (MDCK-hpIgR monolayers)

increase in their apical concentration relative to control VHH (MDCK-hpIgR monolayers) measured on VHH12-linker-mono-Fc protein (Fc fusion, made in CHO cells; also called VHH12-mono-Fc; hpIgR_266) QVQLVETGGGLVQAGDSLRLSCAASGRTLSFNTYAMGWFRQAPGKEREFVASITWNGGSTSYADSVKGRFTITRDNAKNTATLRMNSLQPDDTAVYYCAAARYYVSGTYFPANYWGQGTQVTVSSEPKTPKPQPQPQLQPQPNPTTESKSPKSPAPELLGGPSVFLFPPKPKDTLMISRTPEVTCVVVDVSHEDPEVKFNWYVDGVEVHNAKTKPREEQYNSTYRVVSVLTVLHQDWLNGKEYKCKVSNKALPAPIEKTISKAKGQPREPQVYTKPPSREEMTKNQVSLSCLVKGFYPSDIAVEWESNGQPENNYKTTVPVLDSDGSFRLASYLTVDKSRWQQGNVFSCSVMHEALHNHYTQKSLSLSPGK = > 10 fold
